Hey, just so you know, these numbers are from BindingDB's records for doi:10.1016/j.ejmech.2019.07.019.

Method Notes: Inhibition of HIV1 reverse transcriptase Y181C/K103N double mutant infected in human MT4 cells assessed as reduction in virus-induced cytopathogenicity

{"columns": ["Molecule", "Endpoint Unit", "IC50"],
 "data": [
  ["COP(=O)(c1cc(C)cc(/C=C/C#N)c1)c1c(C(N)=O)[nH]c2ccc(Cl)cc12 (stereo unspecified)", "µM", 11]
]}
